# assayTarget: Decarboxylase (Enterococcus faecalis) (UniProt Q8KXD2)
# Sequence (Q8KXD2 as listed by the source): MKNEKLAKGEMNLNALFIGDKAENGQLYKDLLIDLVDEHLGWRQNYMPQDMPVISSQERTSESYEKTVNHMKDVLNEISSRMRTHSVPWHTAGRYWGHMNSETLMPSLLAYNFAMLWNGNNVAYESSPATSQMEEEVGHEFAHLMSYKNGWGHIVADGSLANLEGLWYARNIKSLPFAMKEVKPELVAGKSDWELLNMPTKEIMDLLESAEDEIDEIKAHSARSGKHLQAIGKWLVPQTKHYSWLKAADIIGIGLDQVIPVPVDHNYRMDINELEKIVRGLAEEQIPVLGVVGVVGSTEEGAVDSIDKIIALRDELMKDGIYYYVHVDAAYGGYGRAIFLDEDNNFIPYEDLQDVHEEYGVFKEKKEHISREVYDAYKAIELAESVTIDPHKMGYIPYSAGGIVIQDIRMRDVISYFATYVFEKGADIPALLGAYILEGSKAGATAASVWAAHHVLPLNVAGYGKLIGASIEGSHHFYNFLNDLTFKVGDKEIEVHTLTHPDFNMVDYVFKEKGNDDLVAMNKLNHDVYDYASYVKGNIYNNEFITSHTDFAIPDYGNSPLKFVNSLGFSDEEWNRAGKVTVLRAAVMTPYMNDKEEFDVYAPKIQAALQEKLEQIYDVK
# protocolSummary: Inhibition of Streptococcus faecalis tyrosine decarboxylase assessed as 14CO2 production using 10 mM L-phenylalanine-1-14C as substrate at 5 mM after 20 mins by scintillation counting analysis
measuredAttribute: inhibition (%)
Give bare numbers, in %.

For orientation, consider the following solved cases.
{"compound": "CC1(C)NC(=O)[C@H](Cc2ccc(O)cc2)N1", "result": 31}
{"compound": "CC1(C)NC(=O)[C@H](Cc2c[nH]c3ccccc23)N1", "result": 33}
{"compound": "CC1(C)NC(=O)[C@H](Cc2cnc[nH]2)N1", "result": 24}
{"compound": "CC1(C)NC(=O)C(Cc2ccccc2)N1 (racemic)", "result": 13}

Attention now turns to another entry.
Problem: Name the reported inhibition value associated with the compound CC1(C)NC(=O)C(c2ccccc2)N1 (racemic)
Result: 7
